B1: mRNA-splicing (parent)
chain: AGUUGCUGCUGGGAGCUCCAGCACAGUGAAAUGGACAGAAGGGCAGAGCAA

variants of: B1; assay: exon inclusion enrichment index; higher = more inclusion; WT1 exon 5 minigene, HEK293
Decide by exon inclusion enrichment index: equal to or exceeding 2 means met, less means not met.

Below are worked cases with known answers.
# Variant id, Category label
data = [
    ("C6A U7C C9A U10C G21C C22U", "met"),
    ("G28C A29U", "not met"),
    ("G5A C6G U7G C9A A37G G38C", "not met"),
]

Check if exon inclusion enrichment index >= 2 (inclusive). Item: G5A C6U U7A G8C
not met

Quick check, exon inclusion enrichment index >= 2? U4G G5C C6A U7A C9A U10A
not met

Tell me whether exon inclusion enrichment index is at least 2 here: G5A U7C G8A U10C G28C
not met

Evaluate G5C C6A U7C G8A U10A G42A G43U : exon inclusion enrichment index at minimum 2?
not met

Would you say G5C C6G U7C C9G U10C shows exon inclusion enrichment index at minimum 2?
met

Answer whether exon inclusion enrichment index of G21U C22A is greater than or equal to 2.
not met

Does exon inclusion enrichment index meet or surpass 2 for G5U G8U C9U A35G C36A ?
not met

For this variant, is measured exon inclusion enrichment index 2 or higher? G5C C6G U7C U10C U17A C18U
met

Is exon inclusion enrichment index for G5U C6G G8C C9U U10C at or above 2?
not met

Given the entry G5C C6A U7C G8A U10A C36U A37U , answer whether its exon inclusion enrichment index meets or surpasses 2.
not met

hey, is exon inclusion enrichment index for this one >= 2? G5A U7C G8A U10C G13C A14G
not met

Say whether G5A C6U U7A G8U C9A G46U A47G shows exon inclusion enrichment index of 2 or more.
not met

Form field: exon inclusion enrichment index at least 2? Entry: A14C G15A
not met

Data origin: the RNAGym collection of RNA variant scans (doi:10.1101/gr.219683.116)
